experimentalSystem: α4β1 integrin (Jurkat T-cell adhesion to IL-1 stimulated endothelial cell monolayers) (Homo sapiens, UniProt P05556+P13612)
Construct: a T-cell line, Jurkat, known to express the α4β1 integrin
Sequence (P13612 34-1032): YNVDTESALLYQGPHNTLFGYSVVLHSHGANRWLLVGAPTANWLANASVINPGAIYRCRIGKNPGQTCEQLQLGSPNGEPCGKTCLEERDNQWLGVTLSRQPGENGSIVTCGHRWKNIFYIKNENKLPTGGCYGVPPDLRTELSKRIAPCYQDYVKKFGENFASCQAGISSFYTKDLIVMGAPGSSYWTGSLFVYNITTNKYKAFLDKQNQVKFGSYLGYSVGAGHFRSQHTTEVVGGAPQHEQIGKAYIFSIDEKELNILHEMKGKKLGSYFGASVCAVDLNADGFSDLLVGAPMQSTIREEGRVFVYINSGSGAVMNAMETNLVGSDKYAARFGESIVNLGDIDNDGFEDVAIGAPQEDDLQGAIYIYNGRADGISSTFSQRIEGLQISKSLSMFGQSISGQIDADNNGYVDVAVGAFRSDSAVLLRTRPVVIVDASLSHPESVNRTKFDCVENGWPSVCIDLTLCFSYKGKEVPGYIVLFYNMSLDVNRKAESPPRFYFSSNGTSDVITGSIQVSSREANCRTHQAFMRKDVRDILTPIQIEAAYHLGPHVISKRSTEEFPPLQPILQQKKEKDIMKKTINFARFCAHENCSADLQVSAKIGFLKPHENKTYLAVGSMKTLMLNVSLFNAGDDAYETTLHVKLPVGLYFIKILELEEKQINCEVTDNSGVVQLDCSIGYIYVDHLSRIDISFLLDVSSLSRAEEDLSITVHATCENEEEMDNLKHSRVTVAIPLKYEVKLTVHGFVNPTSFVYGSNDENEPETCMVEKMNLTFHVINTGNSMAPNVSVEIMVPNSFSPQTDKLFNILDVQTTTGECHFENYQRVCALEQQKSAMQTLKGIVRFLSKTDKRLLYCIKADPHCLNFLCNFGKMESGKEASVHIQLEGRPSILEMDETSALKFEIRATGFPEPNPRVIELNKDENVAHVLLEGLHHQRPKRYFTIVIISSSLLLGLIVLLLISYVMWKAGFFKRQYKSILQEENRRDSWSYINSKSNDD
Sequence (P05556 21-798): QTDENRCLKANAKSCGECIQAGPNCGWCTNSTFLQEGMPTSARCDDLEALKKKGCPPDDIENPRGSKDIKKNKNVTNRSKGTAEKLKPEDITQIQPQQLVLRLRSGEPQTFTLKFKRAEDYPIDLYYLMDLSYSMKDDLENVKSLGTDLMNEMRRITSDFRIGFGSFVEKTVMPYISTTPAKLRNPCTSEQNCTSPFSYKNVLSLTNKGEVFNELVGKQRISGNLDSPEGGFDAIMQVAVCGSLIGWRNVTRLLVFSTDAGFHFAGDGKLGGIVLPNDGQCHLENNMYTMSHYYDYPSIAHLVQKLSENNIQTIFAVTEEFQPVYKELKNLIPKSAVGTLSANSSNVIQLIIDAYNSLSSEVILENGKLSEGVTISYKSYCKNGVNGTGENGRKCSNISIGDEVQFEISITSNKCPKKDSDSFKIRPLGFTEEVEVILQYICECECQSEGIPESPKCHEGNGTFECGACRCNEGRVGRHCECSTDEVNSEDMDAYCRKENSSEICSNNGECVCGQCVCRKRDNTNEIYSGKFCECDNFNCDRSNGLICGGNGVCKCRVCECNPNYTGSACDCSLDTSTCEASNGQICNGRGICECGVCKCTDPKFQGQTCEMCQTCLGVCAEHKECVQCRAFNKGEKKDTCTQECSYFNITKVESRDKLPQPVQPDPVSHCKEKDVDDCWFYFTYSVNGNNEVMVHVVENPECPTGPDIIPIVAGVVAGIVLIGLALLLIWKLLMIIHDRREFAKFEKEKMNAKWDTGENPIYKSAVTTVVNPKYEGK
assayProtocol: Jurkat-endothelial cell adhesion assay (Jurkat EC)
conditionDescription: Jurkat cells on IL-1 stimulated human umbilical vein endothelial cells; read-out: JK/EC (Jurkat EC Assay IC50 value range)
pIC50: −log10 of the molar value.
Listing: pIC50 of selected compounds

Answered examples (6):
COC(=O)[C@H](Cc1ccc(NC(=O)c2c(Cl)cccc2Cl)cc1)NC(=O)[C@H]1CSCN1C(=O)N1CCOCC1 [Example 56] = ≤ 6.00
O=C(Nc1ccc(C[C@H](NC(=O)[C@H]2CCCCN2C(=O)C2CCCO2)C(=O)O)cc1)c1c(Cl)cccc1Cl (stereo partly shown) [Example 253] = ≥ 6.60
O=C(O)c1ccccc1C(=O)N1CCCC(C(=O)N[C@@H](Cc2ccc(NC(=O)c3c(Cl)cccc3Cl)cc2)C(=O)O)C1 (stereo partly shown) [Example 204] = 6.00 to 6.60
O=C(Nc1ccc(C[C@H](NC(=O)C2CCN(C(=O)C3CCCC(C(=O)O)C3)CC2)C(=O)O)cc1)c1c(Cl)cccc1Cl (stereo partly shown) [Example 215] = ≤ 6.00
O=C(O)CCC(=O)N1CCCCC1C(=O)N[C@@H](Cc1ccc(NC(=O)c2c(Cl)cccc2Cl)cc1)C(=O)O (stereo partly shown) [Example 167] = 6.00 to 6.60
CN1C(=O)CCC1(CCC(=O)O)CCC(=O)N[C@@H](Cc1ccc(NC(=O)c2c(Cl)cccc2Cl)cc1)C(=O)O (stereo partly shown) [Example 111] = 6.00 to 6.60

response.value for CCN(CC)C(=O)N1CSC[C@@H]1C(=O)N[C@@H](Cc1ccc(NC(=O)c2c(Cl)cccc2Cl)cc1)C(=O)OC [Example 7] (field: pIC50) = ≤ 6.00

response.value for CCOC(=O)N1[C@@H](C(=O)N[C@@H](Cc2ccc(NC(=O)c3c(Cl)cccc3Cl)cc2)C(=O)O)CSC12CCCC2 (relative stereo) [Example 78] (field: pIC50) = ≤ 6.00

====

experimentalSystem: α4β1 integrin (Jurkat T-cell adhesion to IL-1 stimulated endothelial cell monolayers) (Homo sapiens, UniProt P05556+P13612)
Construct: a T-cell line, Jurkat, known to express the α4β1 integrin
assayProtocol: Jurkat-endothelial cell adhesion assay (Jurkat EC)
conditionDescription: Jurkat cells on IL-1 stimulated human umbilical vein endothelial cells; read-out: JK/EC (Jurkat EC Assay IC50 value range)
pIC50: −log10 of the molar value. Counter-ions that a name gives are not always drawn.
parameter: pIC50

Answered examples (4):
CC(=O)CCC(=O)N1CCCC(C(=O)N[C@@H](Cc2ccc(NC(=O)c3c(Cl)cccc3Cl)cc2)C(=O)O)C1 (stereo partly drawn) = ≤ 6.00
O=C(Nc1ccc(C[C@H](NC(=O)[C@@H]2CCCCN2C(=O)c2ccc([N+](=O)[O-])o2)C(=O)O)cc1)c1c(Cl)cccc1Cl = ≤ 6.00
O=C(O)/C=C/C(=O)N1CCC[C@H]1C(=O)N[C@@H](Cc1ccc(NC(=O)c2c(Cl)cccc2Cl)cc1)C(=O)O = ≤ 6.00
O=C(Nc1ccc(C[C@H](NC(=O)[C@H]2CSCN2)C(=O)O)cc1)c1c(Cl)cccc1Cl [Example 11, Monohydrochloride Salt] = ≤ 6.00

response.value for O=C(Nc1ccc(C[C@H](NC(=O)[C@@H]2CCCCN2C(=O)C2CCCC(C(=O)O)C2)C(=O)O)cc1)c1c(Cl)cccc1Cl (stereo partly drawn) (field: pIC50) = ≤ 6.00

response.value for O=C(O)c1cccc(C(=O)N2CCCC[C@H]2C(=O)N[C@@H](Cc2ccc(NC(=O)c3c(Cl)cccc3Cl)cc2)C(=O)O)c1 (field: pIC50) = 6.00 to 6.60
